assay-notes: Dynamic moisture sorption (DMS) analysis of crystalline forms
Assay type: physicochemical
study-conditions: 90% RH; isotherm 25° C.
Provide the reported DMS: weight picked up at 90% RH of each item.

Q) Return reported DMS: weight picked up at 90% RH; argument: O.O=C(COC[C@H]1CC[C@H](COC(=O)N(c2ccccc2)c2ccc(Cl)cc2)CC1)NCCS(=O)(=O)[O-].O=C(COC[C@H]1CC[C@H](COC(=O)N(c2ccccc2)c2ccc(Cl)cc2)CC1)NCCS(=O)(=O)[O-].[Mg+2] [Compound Ia magnesium salt hydrate]
A) 1.2 % by weight

Q) Return reported DMS: weight picked up at 90% RH; argument: O.O=C(COC[C@H]1CC[C@H](COC(=O)N(c2ccccc2)c2ccc(Cl)cc2)CC1)NCCS(=O)(=O)[O-].[K+] [Compound Ia potassium salt hydrate]
A) 3-4 % by weight
